Tested on: MDR1 (P-gp)
Protocol: Blood-brain-barrier (BBB) penetration potential via MDCK-MDR1 permeability assay
Conditions: dog, MDCK-MDR1, pH 7.4, MDCK-MDR1: Papp B-A, B-A direction
Test Readout: Papp B→A at 120 min, 5 μM (×10⁻⁶ cm/s)
One number for each entry, in ×10⁻⁶ cm/s.

* CN(c1ccc(-c2ccc(-c3cc[nH]n3)cc2O)nn1)[C@@H]1C[C@H]2CC[C@H](N2)[C@@H]1F (single isomer, unassigned) [Compound 33A] | 40.7
* CN(c1ccc(-c2ccc(-n3cnc(C#N)c3)cc2O)nn1)[C@H]1C[C@@H]2CCC[C@@H](N2)[C@H]1F [Compound 63B] | 44.9
* CN(c1ccc(-c2ccc(-n3ccnn3)cc2O)nn1)[C@@H]1C[C@H]2CCC[C@H](N2)[C@@H]1F [Compound 62A] | 61.4
* CN(c1ccc(-c2cc3c(=O)n(C)ccc3s2)nn1)[C@@H]1C[C@H]2CC[C@H](N2)[C@@H]1F (single isomer, unassigned) [Compound 68A] | 45.6
* Cc1ccc(-c2ccc(-c3ccc(N(C)[C@@H]4C[C@H]5CC[C@H](N5)[C@@H]4F)nn3)c(O)c2)nn1 (single isomer, unassigned) [Compound 25A] | 55

List the reported Papp B→A at 120 min, 5 μM of each compound below.
1. Cc1cnc(-c2ccc(-c3ccc(N(C)[C@@H]4C[C@H]5CCC[C@H](N5)[C@@H]4F)nn3)c(O)c2)o1 [Compound 16A]
2. CN(c1ccc(-c2ccc(-c3ccccn3)cc2O)nn1)[C@H]1C[C@@H]2CCC[C@@H](N2)[C@H]1F [Compound 23B]
3. CN(c1ccc(-c2ccc(-n3ccnc3)cc2O)nn1)[C@@H]1C[C@H]2CC(F)(F)[C@@H](C1)N2 [Compound 13A]
4. CN(c1ccc(-c2cc3ccn(C)c(=O)c3cc2O)nn1)[C@@H]1C[C@H]2CC[C@H](N2)[C@@H]1F [Compound 84A]
5. CN(c1ccc(-c2ccc(-n3cnc(C#N)c3)cc2O)nn1)[C@@H]1C[C@H]2CC[C@H](N2)[C@@H]1F [Compound 69A]
6. CN(c1ccc(-c2ccc(-c3ccn(C)n3)cc2O)nn1)[C@@H]1C[C@H]2CC[C@H](N2)[C@@H]1F (single isomer, unassigned) [Compound 36A]

output:
15.2
48.2
50.5
52
39.4
38.6

List the reported Papp B→A at 120 min, 5 μM of each compound below.
1. CN(c1ccc(-c2cc3c(=O)n(C)ccc3cc2O)nn1)[C@H]1C[C@@H]2CC[C@@H](N2)[C@H]1F [Compound 83B]
2. Cc1cc(=O)c2cc(O)c(-c3ccc(N(C)[C@@H]4C[C@H]5CC[C@H](N5)[C@@H]4F)nn3)cc2o1 [Compound 49A]

output:
1: 44.4; 2: 30.7

----------
Please respond with reported Papp B→A at 120 min, 5 μM for every item in the list.
Tested on: MDR1 (P-gp)
Protocol: Blood-brain-barrier (BBB) penetration potential via MDCK-MDR1 permeability assay
Conditions: dog, MDCK-MDR1, pH 7.4, MDCK-MDR1: Papp B-A, B-A direction
Answers are plain numbers, in ×10⁻⁶ cm/s.

Solved entries:
- CN(c1ccc(-c2cc3ncn(CC(F)(F)F)c(=O)c3cc2O)nn1)[C@H]1C[C@@H]2CCC[C@@H](N2)[C@H]1F [Compound 58B]: 53.9
- CN(c1ccc(-c2cc3cnccc3cc2O)nn1)[C@@H]1C[C@H]2CC[C@H](N2)[C@@H]1F (single isomer, unassigned): 20.1

For the next question, use this compound.
input: What does the record list as Papp B→A at 120 min, 5 μM for CN(c1ccc(-c2cc3cncnc3cc2O)nn1)[C@H]1C[C@@H]2CC[C@@H](N2)[C@H]1F [Compound 75B] ?
output: 50.5

----------
Test system: MDR1-MDCK cell monolayers
Protocol: Blood-brain-barrier (BBB) penetration potential via MDCK-MDR1 permeability assay
Conditions: B-A direction
Test Readout: MDCK-MDR1: % Recov B-A (%)
Answers are plain numbers, in %.

Solved entries:
- CN(c1ccc(-c2ccc(-c3ccccn3)cc2O)nn1)[C@H]1C[C@@H]2CCC[C@@H](N2)[C@H]1F [Compound 23B]: 98
- CN(c1ccc(-c2cc3ccncc3cc2O)nn1)[C@@H]1C[C@H]2CC[C@H](N2)[C@@H]1F (single isomer, unassigned) [Compound 87A]: 79
- CCN(c1ccc(-c2ccc(-c3cn[nH]c3)cc2O)nn1)[C@H]1C[C@@H]2CC[C@@H](N2)[C@H]1F [Compound 12B]: 52
- COc1cc(-c2ccc(-c3ccc(N(C)[C@H]4CC5N[C@@H](C4)CC5(F)F)nn3)c(O)c2)cnn1 (single isomer, unassigned) [Compound 2A]: 81
- Cc1cnc(-c2ccc(-c3ccc(N(C)[C@@H]4C[C@H]5CCC[C@H](N5)[C@@H]4F)nn3)c(O)c2)cn1 [Compound 26A]: 77

For the next question, use this compound.
input: What does the record list as MDCK-MDR1: % Recov B-A for CN(c1ccc(-c2cc(F)c(-c3ccoc(=O)c3)cc2O)nn1)[C@@H]1C[C@H]2CC[C@H](N2)[C@@H]1F [Compound 17A] ?
output: 81

----------
Test system: MDR1-MDCK cell monolayers
Protocol: Blood-brain-barrier (BBB) penetration potential via MDCK-MDR1 permeability assay
Conditions: A-B direction
Please respond with reported MDCK-MDR1: % Recov A-B for every item in the list.
One number for each entry, in %.

Solved entries:
• CN(c1ccc(-c2cc(F)c(-c3ccoc(=O)c3)cc2O)nn1)[C@@H]1C[C@H]2CC[C@H](N2)[C@@H]1F [Compound 17A] = 57
• CN(c1ccc(-c2ccc(-n3ccnc3)cc2O)nn1)[C@H]1C[C@@H]2CC[C@@H](N2)[C@H]1F = 87
• CN(c1ccc(-c2ccc(C3=CCCC3)cc2O)nn1)[C@H]1C[C@@H]2CC[C@@H](N2)[C@H]1F [Compound 34B] = 12
• Cc1cc(=O)c2cc(O)c(-c3ccc(N(C)[C@H]4C[C@@H]5CC[C@@H](N5)[C@H]4F)nn3)cc2o1 [Compound 49B] = 86
• CN(c1ccc(-c2ccc(-c3cnn(C(F)F)c3)cc2O)nn1)[C@H]1C[C@@H]2CCC[C@@H](N2)[C@H]1F [Compound 21B] = 39
• CN(c1ccc(-c2cc3cncnc3cc2O)nn1)[C@H]1C[C@@H]2CC[C@@H](N2)[C@H]1F [Compound 75B] = 88

List the reported MDCK-MDR1: % Recov A-B of each compound below.
1. CN(c1ccc(-c2cc3nccnc3cc2O)nn1)[C@H]1C[C@@H]2CC[C@@H](N2)[C@H]1F [Compound 88B]
2. CN(c1ccc(-c2ccc(C#N)cc2O)nn1)[C@@H]1C[C@H]2CC[C@H](N2)[C@@H]1F [Compound 38A]

output:
1: 84; 2: 83

List the reported MDCK-MDR1: % Recov A-B of each compound below.
1. COc1cn(-c2ccc(-c3ccc(N(C)[C@@H]4C[C@H]5CC(F)(F)[C@@H](C4)N5)nn3)c(O)c2)cn1 [Compound 19A]
2. CN(c1ccc(-c2cc3ncn(CC(F)(F)F)c(=O)c3cc2O)nn1)[C@H]1C[C@@H]2CC[C@@H](N2)[C@H]1F [Compound 81B]

output:
[81, 96]

List the reported MDCK-MDR1: % Recov A-B of each compound below.
1. CN(c1ccc(-c2cc3ncccc3cc2O)nn1)[C@@H]1C[C@H]2CCC[C@H](N2)[C@@H]1F [Compound 78A]
2. CN(c1ccc(-c2ccc(-c3nnco3)cc2O)nn1)[C@@H]1C[C@H]2CC[C@H](N2)[C@@H]1F [Compound 44A]
3. CN(c1ccc(-c2ccc(-n3ccnn3)cc2O)nn1)[C@H]1C[C@@H]2CCC[C@@H](N2)[C@H]1F [Compound 62B]
4. CN(c1ccc(-c2cc(F)c(-c3ccn(C)c(=O)c3)cc2O)nn1)[C@@H]1C[C@H]2CC[C@H](N2)[C@@H]1F

output:
[74, 87, 82, 83]

----------
Tested on: MDR1
Protocol: in vitro
Conditions: dog, MDCK-MDR1, pH 7.4
Please use True for efflux ratio at 120 min, 5 μM under 9 and False for everything else, ties included.

These recorded examples may help you get a feel for the data.
* CN(c1ccc(-c2ccc(-n3ccnc3)cc2O)nn1)[C@H]1C[C@@H]2CC(F)(F)[C@H](C1)N2 [Compound 13B] | True
* CNC(=O)c1cc(O)c(-c2ccc(N(C)[C@H]3C[C@@H]4CC[C@H]([C@H]3F)N4C)nn2)cc1F (single isomer, unassigned) [Compound 96B] | False
* Cn1cnc2cc(-c3ccc(N(C4CC4)[C@@H]4C[C@H]5CC[C@H](N5)[C@@H]4F)nn3)c(O)cc2c1=O [Compound 56A] | False
* CN(c1ccc(-c2cc3ncn(CC(F)(F)F)c(=O)c3cc2O)nn1)[C@@H]1C[C@H]2CC(F)(F)[C@@H](C1)N2C (single isomer, unassigned) [Compound 110A] | True

We next turn to a different compound, shown below.
input: Find out if reported efflux ratio at 120 min, 5 μM for CN(c1ccc(-c2cc(C#N)c(F)cc2O)nn1)[C@@H]1C[C@H]2CC[C@H](N2)[C@@H]1F [Compound 72A] is less than 9
output: True
